# Test system: Fibroblast
# ASSAY_EXPLANATION: Multiplex assay against human fibroblast
# Format: toxicity, cell-based
# RUN_CONDITIONS: 12 h, 10 µM, compound concentration 10 uM, replicate 2
Hi, to clarify the labels: class 1 covers Population Fragmented Nuclei (%) from 20% upward, class 0 covers anything below 20%.

Completed entries (count: 2):
Exam item: Is it the case that C=CC(=O)Nc1cc(-n2c(=O)ccc3cnc4ccc(-c5ccc(NS(C)(=O)=O)cc5)cc4c32)ccc1C has Population Fragmented Nuclei (%) reaching or exceeding 20%?
Marked response: class 0

Exam item: Continue with CN(c1cc(C(F)(F)F)nc(OCCC(=O)O)n1)c1cccc2c1CCC2
Marked response: class 0

Continuing:
Exam item: Threshold query (Population Fragmented Nuclei (%) >= 20%) on CCCCCNC(=N)N/N=C/c1c[nH]c2ccc(OC)cc12.O=C(O)/C=C\C(=O)O [TEGASEROD MALEATE]
Marked response: class 1

Exam item: # repeat for Cc1ccc(NC(=O)Nc2cc(C(F)(F)F)ccc2F)cc1Nc1ccc2c(c1)NC(=O)/C2=C\c1ccc[nH]1
Marked response: class 1

Exam item: Next up: CCCc1cc(C)[nH]c(=O)c1CNC(=O)c1cc(-c2ccc(N3CCN(C(C)C)CC3)nc2)cc2c1cnn2C(C)C
Marked response: class 0

Exam item: Proceed to Cl.NC[C@@H]1O[C@H](C23CC4CC(CC(C4)C2)C3)Cc2c1ccc(O)c2O
Marked response: class 1

Exam item: // same read-out, input: CC(Cc1ccc(O)c(O)c1)C(C)Cc1ccc(O)c(O)c1 (configuration not stated) [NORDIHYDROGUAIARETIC ACID]
Marked response: class 0

Exam item: Likewise for NC(=O)c1ccc2nc(-c3ccc(C4(N)CCC4)cc3)c(-c3ccccc3)n2n1 ?
Marked response: class 1

Exam item: Similarly, N#Cc1cccc(C(=O)Nc2cc(-c3ccccc3)nn2-c2ccccc2)c1 ?
Marked response: class 0

Exam item: Then this compound: CC[C@@H]1C(=O)N(C)c2cnc(Nc3ccc(C(=O)NC4CCN(C)CC4)cc3OC)nc2N1C1CCCC1
Marked response: class 1

Exam item: Please answer likewise for CC(/C=C1\SC(=S)N(CCCC(=O)Nc2ccc(C(=O)O)c(O)c2)C1=O)=C\c1ccccc1
Marked response: class 0

Exam item: # repeat for CC[C@H](Nc1ncnc2[nH]cnc12)c1nc2cccc(F)c2c(=O)n1-c1ccccc1
Marked response: class 1

Exam item: Record: Cc1c(P(=S)(c2ccccc2)c2ccccc2)n2ccccc2[n+]1C/C=C/c1ccccc1.[Br-]
Marked response: class 1

Exam item: Same again, this time with c1ccc(-c2oc3ncnc(NC[C@@H]4CCCO4)c3c2-c2ccccc2)cc1
Marked response: class 0

Exam item: Now this one: CCOc1ccn(-c2ccc(F)cc2)c(=O)c1C(=O)Nc1ccc(Oc2ccnc(N)c2Cl)c(F)c1
Marked response: class 1

Exam item: Then this compound: CCCCN(CC)c1nc(C)nc2c1c(C)cn2-c1c(C)cc(C)cc1C.Cl
Marked response: class 0

Exam item: Same lookup for CCOC(=O)CCNc1cc(N2CCc3ccccc3CC2)nc(-c2ccccn2)n1 , please.
Marked response: class 1

Exam item: Note, next up: CC[C@@]1(O)C(=O)OCc2c1cc1n(c2=O)Cc2cc3ccccc3nc2-1
Marked response: class 1

Exam item: Try this compound too: CC(C)[C@H](CO)Nc1nc(Nc2cccc(Cl)c2)c2ncn(C(C)C)c2n1
Marked response: class 0

Exam item: What do you get for Cc1ccc(S(=O)(=O)NC2c3ccccc3Oc3ccccc32)cc1 ?
Marked response: class 1

Exam item: Lookup C[C@@H](Oc1cc(-n2cnc3ccc(CN4CCN(C)CC4)cc32)sc1C(N)=O)c1ccccc1C(F)(F)F
Marked response: class 0

Just for reference, ChEMBL document CHEMBL4689842 is where these values come from.
